Molecular target: Sodium-dependent serotonin transporter (Rattus norvegicus)
Sequence (P31652 whole entry): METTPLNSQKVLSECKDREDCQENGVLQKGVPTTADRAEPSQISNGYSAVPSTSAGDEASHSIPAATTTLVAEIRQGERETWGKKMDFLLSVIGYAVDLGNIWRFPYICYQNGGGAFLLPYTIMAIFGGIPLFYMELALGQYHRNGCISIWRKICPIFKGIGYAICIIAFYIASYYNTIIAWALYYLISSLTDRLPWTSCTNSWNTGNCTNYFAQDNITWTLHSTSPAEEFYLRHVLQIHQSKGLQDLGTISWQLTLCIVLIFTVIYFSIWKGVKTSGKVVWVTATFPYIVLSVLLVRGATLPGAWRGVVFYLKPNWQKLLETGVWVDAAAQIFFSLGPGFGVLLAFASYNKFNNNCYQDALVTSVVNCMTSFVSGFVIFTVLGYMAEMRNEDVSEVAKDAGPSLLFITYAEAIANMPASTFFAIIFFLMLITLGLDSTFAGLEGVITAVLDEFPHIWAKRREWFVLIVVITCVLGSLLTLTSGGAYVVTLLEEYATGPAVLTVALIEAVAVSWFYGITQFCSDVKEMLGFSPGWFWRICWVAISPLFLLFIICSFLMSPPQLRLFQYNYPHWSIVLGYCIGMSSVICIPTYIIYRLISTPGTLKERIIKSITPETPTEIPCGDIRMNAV
Assay: Inhibition of high affinity uptake by the serotonin transporter (5-HT) from rat synaptosomal nerve endings by using [3H]5-HT as radioligand
assay_readout: log10(Ki) (log10 of the value in nM)
Note: values are log10 of Ki expressed in nM.

For this compound ( COCCSCC1CN(C)CCC1c1ccc(Cl)cc1 (stereo unspecified) ), measured log10(Ki) is 2.28

For this compound ( CC(=O)OCC[S+]([O-])CC1CN(C)CCC1c1ccc(Cl)cc1 (stereo unspecified) ), measured log10(Ki) is 1.94

For this compound ( CC(=O)OCCSCC1CN(C)CCC1c1ccc(Cl)cc1 (stereo unspecified) ), measured log10(Ki) is 1.76

For this compound ( CN1CCC(c2ccc(Cl)cc2)C(CSCC(=O)NO)C1 (stereo unspecified) ), measured log10(Ki) is 2.36

For this compound ( CN1CCC(c2ccc(Cl)cc2)C(C[S+]([O-])CC(N)=O)C1 (stereo unspecified) ), measured log10(Ki) is 3.76

For this compound ( COC(=O)C[S+]([O-])CC1CN(C)CCC1c1ccc(Cl)cc1 (stereo unspecified) ), measured log10(Ki) is 2.91
